Target: Recombinant Human NF-kappaB-Inducing Kinase (NIK/MAP3K14) (Homo sapiens (Human))
Sequence (Q99558 whole entry): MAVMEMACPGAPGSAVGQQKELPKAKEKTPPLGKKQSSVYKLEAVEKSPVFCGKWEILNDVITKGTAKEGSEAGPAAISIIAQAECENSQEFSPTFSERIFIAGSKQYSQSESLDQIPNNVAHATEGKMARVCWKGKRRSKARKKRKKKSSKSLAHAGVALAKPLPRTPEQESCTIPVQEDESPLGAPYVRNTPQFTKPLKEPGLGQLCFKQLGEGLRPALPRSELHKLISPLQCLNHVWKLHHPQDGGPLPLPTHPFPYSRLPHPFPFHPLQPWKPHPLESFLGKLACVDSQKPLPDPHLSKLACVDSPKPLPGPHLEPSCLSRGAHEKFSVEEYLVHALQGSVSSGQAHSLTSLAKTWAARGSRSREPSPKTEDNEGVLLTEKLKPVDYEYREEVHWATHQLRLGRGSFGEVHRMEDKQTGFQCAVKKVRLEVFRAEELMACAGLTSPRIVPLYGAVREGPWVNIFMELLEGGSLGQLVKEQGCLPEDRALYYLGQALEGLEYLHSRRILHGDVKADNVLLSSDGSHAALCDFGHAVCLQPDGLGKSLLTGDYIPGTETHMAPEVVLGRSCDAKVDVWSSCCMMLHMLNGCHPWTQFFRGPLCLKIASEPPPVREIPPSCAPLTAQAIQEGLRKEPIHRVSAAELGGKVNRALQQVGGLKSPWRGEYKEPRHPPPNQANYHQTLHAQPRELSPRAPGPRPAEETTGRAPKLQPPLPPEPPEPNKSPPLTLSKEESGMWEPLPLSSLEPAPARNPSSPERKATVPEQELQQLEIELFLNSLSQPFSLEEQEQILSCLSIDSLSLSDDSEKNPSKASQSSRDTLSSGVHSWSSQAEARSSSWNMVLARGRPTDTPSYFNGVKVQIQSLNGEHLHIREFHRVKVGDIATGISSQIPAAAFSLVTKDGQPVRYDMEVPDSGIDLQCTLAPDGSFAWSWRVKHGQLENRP
Assay: Inhibition of auto-phosphorylation of recombinant human NIK/MAP3K14 activity (AlphaScreen)
Settings: GST-tagged NIK/MAP3K14 0.2 nM, 25 microM ATP, 1 h at 25° C.; averaged over all measurements on all batches; read-out: Alpha-Screen IC50
Protocol: Inhibition of Auto-Phosphorylation of Recombinant Human NF-kappaB-Inducing Kinase (NIK/MAP3K14) Activity (AlphaScreen®) NIK/MAP3K14 auto-phosphorylation activity was measured using the AlphaScreen® (αscreen) format (Perkin Elmer). All compounds tested were dissolved in dimethyl sulfoxide (DMSO) and further dilutions were made in assay buffer. […] Protein A Acceptor and Glutathione-Donor beads were added before reading using an EnVision® Multilabel Plate Reader (Perkin Elmer). […]
Measurement kind: pIC50
// field semantics: pIC50 = negative decimal log of concentration (mol/L)

Recorded pIC50 (molecule "[2H]C([2H])([2H])C(O)(C#Cc1cc2c(-c3nc(N)nc4cn(CC)nc34)cn(CCCOC)c2cc1F)C([2H])([2H])[2H]" ): 7.19

"[2H]C([2H])([2H])C(O)(C#Cc1cc2c(-c3nc(N)nc4cn(CC)nc34)cn(C3CN(CC4CC4)C3)c2cc1F)C([2H])([2H])[2H]" yielded pIC50 of 7.22

The molecule "COCCCn1cc(-c2nc(N)nc3cn(C)nc23)c2cc(C#CC(C)(C)O)ncc21" showed pIC50 equal to 7.34

Form field pIC50, entry COCCCn1cc(-c2nc(N)nc3cn(C)nc23)c2cc(C#CC(C)(O)C3CC3)ncc21 (stereo not drawn) : 7.64

Entry [2H]C([2H])([2H])n1cc2nc(N)nc(-c3cn(C4CCN(CC)C4)c4cc(F)c(C#CC(O)(C([2H])([2H])[2H])C([2H])([2H])[2H])cc34)c2n1 (stereo not drawn) — recorded pIC50 = 6.95

get_value(item= CCn1cc2nc(N)nc(-c3cn(CCCOC)c4cnc(C#CC(C)(O)C5CC5)cc34)c2n1 (stereo not drawn) , readout=pIC50) returns 7.28

The recorded pIC50 for "[2H]C([2H])([2H])C(O)(C#Cc1cc2c(-c3nc(N)nc4cn(CC)nc34)cn(C3CN(C4CC4)C3)c2cn1)C([2H])([2H])[2H]" is 7.08

Per the records, this molecule ( "[2H]C([2H])([2H])C(O)(C#Cc1cc2c(-c3nc(N)nc4cn(CC)nc34)cn(C3CN(CC4CC4)C3)c2cn1)C([2H])([2H])[2H]" ) has pIC50 equal to 6.84

Recorded result, CCn1cc2nc(N)nc(-c3cn(C4CN(C5CC5)C4)c4cnc(C#CC(C)(O)C5CC5)cc34)c2n1 (stereo not drawn) , pIC50: 6.73

Short answer for COCCCn1cc(-c2nc(N)nc3cn(C4CC4)nc23)c2cc(C#CC(C)(O)C3CC3)ncc21 (stereo not drawn) : pIC50 was 7.42

The molecule CCn1cc2nc(N)nc(-c3cn(CCCOC)c4cc(F)c(C#CC(C)(O)C5CC5)cc34)c2n1 (stereo not drawn) showed pIC50 equal to 6.00

The measured pIC50 associated with [2H]C([2H])([2H])C(O)(C#Cc1cc2c(-c3nc(N)nc4cn(CC)nc34)cn(C3CCN(CC)C3)c2cc1F)C([2H])([2H])[2H] (stereo not drawn) reads 7.43
